molecular target: erythrocytes infected with P. falciparum field isolate 9775; assay: flow cytometry, staining of IEs
Recorded % parasite recognition, one value per entry.
Use % as the unit, but write only the number.

binder | unit abbrev | value measured
MGC7 (antibody) VH: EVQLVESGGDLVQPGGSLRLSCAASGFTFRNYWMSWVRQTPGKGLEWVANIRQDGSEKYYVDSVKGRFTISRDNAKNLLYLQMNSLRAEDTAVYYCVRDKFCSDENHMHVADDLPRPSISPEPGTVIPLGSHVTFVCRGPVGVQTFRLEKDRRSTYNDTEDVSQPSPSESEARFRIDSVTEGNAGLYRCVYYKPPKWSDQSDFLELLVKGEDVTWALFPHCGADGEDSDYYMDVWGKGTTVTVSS VL: DIQMTQSPSSVSASVGDRVTITCRASQGLSTWLAWYQQKPGKAPKILIYAASSLQSGVPSRFSGSGSGTDFTLTISSLQPEDFATYYCQQANSFPLTFGGGTKVEIK | % | 4.6
MGC35 (antibody) VH: EVQLVESGGGLVQPGGSLRLSCEASGFNSRSYWMTWVRQAPGKGLEWVASINQDATEKNYVDSVKGRFTISRDTAKNSLYLQMNSLRAEDTAVYYCARDRFCGGESHLHGQEDLPRPSISAEPGSVIPLGSLVTFVCRGPVGVHTFRLERGWTYNDTEDVSQAGPSESEARFRMDSVREGNAGLYRCIYYKPPKWSEQSAYLELRVKGGDVTWALLTYCGGDGEESDYPMDVWGKGTTVTVSS VL: QTVVTQEPSLTVSPGGTVTLTCASSTGPVTSAYYPNWFQQKPGQAPRSLIYNINKKHSWTPDRFSGSLLGGKAALTLSGVQPEDEADYYCLLSCGGAQPWVFGGGTKLTVQ | % | 7.2
MGD30 (antibody) VH: QVQLQESGPGLVKPSETLSLSCAVTGGSITSSKWWTWVRQGPDKGLEWIGKIYHNGTTNYNPSLKSRVAMSVDKSRNQFSLRLTSVTAADTALYYCATASPFKSHHRTTEKLPRPSISAEPGTVIPLGSRVTFVCRGPVGVQTFRLERETSFTYNDTEDVSQVSPSESEARFRIDSVSEGYAGPYRCVYYKAPKWSEQSDYLDLLVKGEDVTWALTQPQLDPRACPQGDLRMSTDIYCMDVWGKGTTVTVSS VL: AIRLTQSPSSLSASIGDRVTITCRASQDISTFLAWYQQESGKAPRLLIFAASTLQTGVPSRFSGSGSGTDFTLTISGLQSEDFATYYCQQYYCFPPDFGQGTRLDIK | % | 5.6

Now for another entry.
Quote % parasite recognition reported for MGC1 (antibody) VH: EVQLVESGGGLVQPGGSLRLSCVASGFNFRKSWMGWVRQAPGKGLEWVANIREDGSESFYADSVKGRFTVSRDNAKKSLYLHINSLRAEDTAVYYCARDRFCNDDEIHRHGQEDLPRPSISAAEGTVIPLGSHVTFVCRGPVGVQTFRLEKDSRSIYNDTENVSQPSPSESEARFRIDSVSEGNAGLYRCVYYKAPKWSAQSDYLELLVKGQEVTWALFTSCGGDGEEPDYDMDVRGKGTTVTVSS VL: DIVMTQSPDSLAVSLGERATINCKSSQSVLYRSKNKNYLAWFQQKPGQPPKVLIYSTSTRASGVPDRFTGSGSGTDFTLTISSLQAEDVAVYYCLQYYITPYTFGQGTKLEIK please.
5.7
